test system: gene editing with dCas9; assay: Screen of 322 new SSAP proteins, gene editing activity with dCas9 (Table 5); type: cell-based; settings: normalized

MOLECULE	dCas9 with SSAP activity (normalized)
SSAP_318: SEQ ID NO: 487; Shewanella morhuae (protein, listed as Shewanella morhuae) QTAQVKLSVPHQQVYQDNFNYLSSQVVGHLVDLNEEIGYLNQIVFNSLSTASPLDVAAPWSVYGLLLNVCRLGLSLNPEKKLAYVMPSWSETGEIIMKLYPGYRGEIAIASNFNVIKNANAVLVYENDHFRIQAATGEIEHFVTSLSIDPRVRGACSGGYCRSVLMDNTIQISYLSIEEMNAIAQNQIEANMGNTPWNSIWRTEMNRVALYRRAAKDWRQLIKATPEIQSALSDTEY	−0.597
SSAP_309: SEQ ID NO: 478; Paenibacillus sp. FSL R7-0333 (protein, listed as Paenibacillus sp.) TVAIELQVQETLDRILDSKHDALPSDFNKKRFSENCKAYVADEKDLHKYSPEEIAANLFKGAVLGLDFLAKECHLISGGVELKFQTDYKGEMKLTKKYSVRPLLDVYAKNVREGDEFREEVIEGRPVIHFAPLPFNASSIIGSFAVALFQDGGMVYESIPAGEIEEIRKNYGKSLGDAWDKSQGEMYKRTVLRRLCKTIETDFDAEQRLIYDAGGAFEFTKQPARSRQQSPFNPPEESEVTQDDRVAETDQG	−2.412
SSAP_281: SEQ ID NO: 450; Leucobacter luti (protein, listed as Leucobacter luti) SDLSQAAVAVKKSKTVEDYLTEYEPQFQRALGKSMDAAKFSQDALTAIKQTPQLGQADLQTLFGSLFLAAQLKLPVGGPLAQFHLTPRKRGDKLEVLPIIGFGGYVQLIMNTGLYSKVGAFLIYEKDYFDEGANSERGEFYDFKKSRGDRGPVVGVIAYVKLKGFDESQYVFLDADTIRSRHRPRYWEKTPWGSDEGEMFKKTGVRVLQKLLPKSVEAAPLALAADADQATVRKVDGIEDLTIQHDVVDAEVVPDGVPV	−0.973
SSAP_250: SEQ ID NO: 419; Streptococcus pseudoporcinus (protein, listed as Streptococcus pseudoporcinus) ANQLTVVNTLQSDAVKEKFEAVMGEKANGFVSSVLSVVTNNNLLAKADFNSVYTSAMKAAVLDLPVEPSLGMAYIVPYKGKAQFQIGYKGLIQLAQRSGKVTKLNSGKIYKGQFKSYNALSEELDIDDIYTPKEDEEVVGYFGYMKLSNGFEKITYWTKERVEKHGKKYSQSYDSKFSPWQTNFDAMAEKTVLKSILSTYAPLTIEMQNANDFDNGKNTGIEPLEVKDVTPENDNESLLSDLLEDEPSVDAETGEIMENTELDLDYGSINAK	−1.117
